From: ChEMBL document CHEMBL1125030

assay: Antagonist activity expressed as pA2, evaluated from the potency to stimulate amylase release from guinea pig pancreatic acini; assay type: functional, Cavia porcellus
Where a SMILES comes first, the peptide text is derived from it. [ ]: non-standard residue; d: D form. The star is where a group is joined. Phe(4-SO3H) = N[C@@H](Cc1ccc(S(=O)(=O)O)cc1)C(=O)O; sY = N[C@@H](Cc1ccc(OS(=O)(=O)O)cc1)C(=O)O; Nle = CCCC[C@H](N)C(=O)O; Orn = NCCC[C@H](N)C(=O)O; Cbz = O=C(OCc1ccccc1)*; Boc = CC(C)(C)OC(=O)*
Assay metric: pA2

Answered examples (4):
molecule="CC(C)(C)OC(=O)NCCC[C@H](NC(=O)[C@H](Cc1c[nH]c2ccccc12)NC(=O)OC(C)(C)C)C(=O)N[C@@H](CC(=O)O)C(=O)N[C@@H](Cc1ccccc1)C(N)=O (Boc-W[Orn](Boc)DF-NH2)" reported_measurement=4.58
molecule="CC(C)(C)OC(=O)N[C@@H](Cc1c[nH]c2ccccc12)C(=O)N[C@@H](CCCNC(=O)OCc1ccccc1)C(=O)N[C@@H](CC(=O)O)C(N)=O (Boc-Trp-[Orn](Cbz)-Asp-NH2)" reported_measurement=6.63
molecule="CCCC[C@H](NC(=O)[C@H](Cc1ccc(S(=O)(=O)O)cc1)NC(=O)OC(C)(C)C)C(=O)NCC(=O)N[C@@H](Cc1c[nH]c2ccccc12)C(=O)N[C@@H](CCCNC(=O)OC(C)(C)C)C(=O)N[C@@H](CC(=O)O)C(=O)N[C@@H](Cc1ccccc1)C(N)=O (Boc-[Phe(4-SO3H)][Nle]GW[Orn](Boc)DF-NH2)" reported_measurement=5.94
molecule="CC(C)(C)OC(=O)N[C@@H](Cc1c[nH]c2ccccc12)C(=O)N[C@@H](CCCNC(=O)OCc1ccccc1)C(=O)N[C@@H](CC(=O)O)C(=O)N[C@@H](Cc1ccccc1)C(N)=O (Boc-W[Orn](Cbz)DF-NH2)" reported_measurement=6.25

A: CCCC[C@H](NC(=O)[C@H](Cc1ccc(OS(=O)(=O)O)cc1)NC(=O)OC(C)(C)C)C(=O)NCC(=O)N[C@@H](Cc1c[nH]c2ccccc12)C(=O)N[C@@H](CCCNC(=O)OCc1ccccc1)C(=O)N[C@@H](CC(=O)O)C(N)=O (Boc-[sY][Nle]GW[Orn](Cbz)D-NH2)
B: CC(C)(C)OC(=O)NCCC[C@H](NC(=O)[C@H](Cc1c[nH]c2ccccc12)NC(=O)OC(C)(C)C)C(=O)N[C@@H](CC(=O)O)C(N)=O (Boc-Trp-[Orn](Boc)-Asp-NH2)
IN: I'd appreciate it if you could identify which of A and B has the greater pA2. // output: label of the selected item
OUT: A
(A: 6.64, B: 4.62)
